System: SK-OV-3
Assay: Cytotoxicity against human SKOV3 cells assessed as inhibition of KSP-mediated cell cycle progression after 44 hrs by MTT assay
Format: functional
Conditions: SK-OV-3, 44 h
quantity.kind: GI50 (µM)
Note: unit µM is implicit; provide only the numeric part.

CC(C)[C@H](c1nc2cc(Cl)ccc2c(=O)n1Cc1ccccc1)N(CCCN)C(=O)c1ccccc1F :: 0.0348
CC(C)C(c1nc2cc(Cl)ccc2c(=O)n1Cc1ccccc1)N(CCCN)C(=O)c1cccc(F)c1 (racemic) :: 0.0156

Enquiry: Give the measured GI50 of CC(C)C(c1nc2cc(Cl)ccc2c(=O)n1Cc1ccccc1)N(CCCN)C(=O)c1ccccc1F (racemic) .
Return: 0.0356

Enquiry: And what about the compound CC(C)C(c1nc2cc(Cl)ccc2c(=O)n1Cc1ccccc1)N(CCCN)C(=O)c1ccc(F)cc1 (racemic) ?
Return: 2.7

// data source = ChEMBL document CHEMBL2321780
